Each item that follows carries a reported ELISA OD450cyIL-36/OD450hu-IL-36.
- tested-system: T1, cy-IL-36γ (cynomolgus monkey IL-36γ, S18-K168) (cynomolgus monkey, UniProt Q9NZH8 18-167 (human entry))
- T1 construct: Purification tag cleaved off
- T1 chain: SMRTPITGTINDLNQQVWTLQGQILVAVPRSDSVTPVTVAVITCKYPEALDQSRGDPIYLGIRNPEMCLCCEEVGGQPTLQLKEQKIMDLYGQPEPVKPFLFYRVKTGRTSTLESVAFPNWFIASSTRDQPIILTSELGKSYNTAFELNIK
- method-notes: ELISA on coated cy- and hu-IL-36γ, yeast Fab supernatant; ratio of OD450

binder	ELISA OD450cyIL-36/OD450hu-IL-36
mAb4.0 Fab (yeast clone culture supernatant) (Fab, V domains shown, Human Fab secreted by the yeast clone, not purified) VH: QLQLQESGPGLVKPSETLSLTCTVSGGSIGSRSYYWGWIRQPPGKGLEWIGSIHYSGTTYYNPSLKSRVTISVDTSKNQFSLKLSSVTAADTAVYYCARVAPSYPRVFDYWGQGTLVTVSS VL: QSVLTQPPSVSGAPGQRVTISCTGSSSNIGAGYDVHWYQQLPGTAPKLLIYGNRNRPSGVPDRFSGSKSGTSASLAITGLQAEDEADYYCQSYDYSLRVYVFGGGTKLTVL	1.2 ratio
mAb3.0 Fab (yeast clone culture supernatant) (Fab, V domains shown, Human Fab secreted by the yeast clone, not purified) VH: QLQLQESGPGLVKPSETLSLTCTVSGGSISSTSYYWGWIRQPPGKGLEWIGSIHYSGNTYYNPSLKSRVTISVDTSKNQFSLKLSSVTAADTAVYYCARVHYGGYIPRRFDHWGQGTLVTVSS VL: QSVLTQPPSVSGAPGQRVTISCTGSSSNIGAGYDVHWYQQLPGTAPKLLIYGNTNRPSGVPDRFSGSKSGTSASLAITGLQAEDEADYYCQSYDYSLRGYVFGGGTKLTVL	1 ratio
mAb2.0 Fab (yeast clone culture supernatant) (Fab, V domains shown, Human Fab secreted by the yeast clone, not purified) VH: QLQLQESGPGLVKPSETLSLTCTVSGGSISTSSYYWGWIRQPPGKGLEWIGSIYYTGNTYYNPSLKSRVTISVDTSKNQFSLKLSSVTAADTAVYYCARVRYGVGVPRYFDPWGQGTLVTVSS VL: QSVLTQPPSVSGAPGQRVTISCTGSSSNIGAHYDVHWYQQLPGTAPKLLIYGNDNRPSGVPDRFSGSKSGTSASLAITGLQAEDEADYYCQSYDYSLSGYVFGGGTKLTVL	1.2 ratio
mAb1.0 Fab (yeast clone culture supernatant) (Fab, V domains shown, Human Fab secreted by the yeast clone, not purified) VH: QVQLVESGGGVVQPGRSLRLSCAASGFSFSAYAMHWVRQAPGKGLEWVAVISYDGTNEYYADSVKGRFTISRDNSKNTLYLQMNSLRAEDTAVYYCARGIRIFTSYFDSWGQGTLVTVSS VL: QSVLTQPPSVSGAPGQRVTISCTGSSSNIGAHYDVHWYQQLPGTAPKLLIYSNNNRPSGVPDRFSGSKSGTSASLAITGLQAEDEADYYCQSYDYSLRGYVFGGGTKLTVL	1.3 ratio
mAb5.0 Fab (yeast clone culture supernatant) (Fab, V domains shown, Human Fab secreted by the yeast clone, not purified) VH: EVQLLESGGGLVQPGGSLRLSCAASGFTFSTYAMSWVRQAPGKGLEWVSGISGGSGYTYYADSVKGRFTISRDNSKNTLYLQMNSLRAEDTAVYYCARVVTYRDPPASFDYWGQGTLVTVSS VL: QSVLTQPPSVSGAPGQRVTISCTGSSSNIGAHYDVHWYQQLPGTAPKLLIYGNDNRPSGVPDRFSGSKSGTSASLAITGLQAEDEADYYCQSYDYSLKAYVFGGGTKLTVL	1 ratio
